biological target: Tubulin (Homo sapiens) (UniProt P68371+Q9H4B7+P0DPH7+P68366+Q13509+Q71U36+P04350+Q3ZCM7+P07437+P68363+Q9BQE3+Q6PEY2+Q13885+Q9BVA1+Q9BUF5); experiment: Binding affinity to tubulin (unknown origin) by fluorescence polarization displacement assay; format: protein-complex assay
Measured relative binding affinity (RBA) accompanies every entry in the list below.

Solved entries:
• CCO[C@H](C[C@H](C(C)C)N(C)C(=O)[C@@H](NC(=O)[C@H]1[C@@H]2CC[C@@H](C2)N1C)[C@@H](C)CC)c1nc(C(=O)N[C@@H](Cc2ccccc2)C[C@H](C)C(=O)O)cs1 = 0.08
• CCO[C@H](C[C@H](C(C)C)N(C)C(=O)[C@@H](NC(=O)[C@H]1CCCCN1C)[C@H](C)OC)c1nc(C(=O)N[C@@H](Cc2ccccc2)C[C@H](C)C(=O)O)cs1 = 0.001
• CCO[C@H](C[C@H](C(C)C)N(C)C(=O)[C@@H](NC(=O)[C@@]1(C)CCCN1C)[C@@H](C)CC)c1nc(C(=O)N[C@@H](Cc2ccccc2)C[C@H](C)C(=O)O)cs1 = 0.38

What does the data say about its relative binding affinity (RBA)? Entry: `C#CCO[C@H](C[C@H](C(C)C)N(C)C(=O)[C@@H](NC(=O)[C@H]1CCCCN1C)[C@@H](C)CC)c1nc(C(=O)N[C@@H](Cc2ccccc2)C[C@H](C)C(=O)O)cs1`
0.59

What does the data say about its relative binding affinity (RBA)? Entry: `CCO[C@H](C[C@H](C(C)C)N(C)C(=O)[C@@H](NC(=O)[C@H]1CCCCN1C)[C@H](C)OC(C)(C)C)c1nc(C(=O)N[C@@H](Cc2ccccc2)C[C@H](C)C(=O)O)cs1`
0.06

----------
target: Tubulin (Homo sapiens) (UniProt P68371+Q9H4B7+P0DPH7+P68366+Q13509+Q71U36+P04350+Q3ZCM7+P07437+P68363+Q9BQE3+Q6PEY2+Q13885+Q9BVA1+Q9BUF5); assay: Binding affinity to tubulin (unknown origin) by fluorescence polarization displacement assay; type: protein-complex assay
Use condition met when the recorded relative binding affinity (RBA) is no lower than 0.3; use condition not met when it is lower.

Known results for compounds:
- CCO[C@H](C[C@H](C(C)C)N(C)C(=O)[C@@H](NC(=O)[C@H]1CCCCN1C)[C@@H](C)OC(C)(C)C)c1nc(C(=O)N[C@@H](Cc2ccccc2)C[C@H](C)C(=O)O)cs1: condition met
- CC[C@H](C)[C@H](NC(=O)[C@H]1CCCCN1C)C(=O)N(C)[C@H](C[C@@H](OCC(C)=O)c1nc(C(=O)N[C@@H](Cc2ccccc2)C[C@H](C)C(=O)O)cs1)C(C)C: condition not met
- CC[C@H](C)[C@H](NC(=O)[C@H]1CCCCN1C)C(=O)N(C)[C@H](C[C@@H](OC)c1nc(C(=O)N[C@@H](Cc2ccccc2)C[C@H](C)C(=O)O)cs1)C(C)C: condition met

Say whether `CCO[C@H](C[C@H](C(C)C)N(C)C(=O)[C@@H](NC(=O)C12CC(CCN1C)C2)[C@@H](C)CC)c1nc(C(=O)N[C@@H](Cc2ccccc2)C[C@H](C)C(=O)O)cs1` shows relative binding affinity (RBA) of 0.3 or more.
condition not met

Say whether CCO[C@H](C[C@H](C(C)C)N(C)C(=O)[C@@H](NC(=O)C1CCC(F)(F)CN1C)[C@@H](C)CC)c1nc(C(=O)N[C@@H](Cc2ccccc2)C[C@H](C)C(=O)O)cs1 (mixture of isomers) shows relative binding affinity (RBA) of 0.3 or more.
condition not met

----------
molecular target: Tubulin (Homo sapiens) (UniProt P68371+Q9H4B7+P0DPH7+P68366+Q13509+Q71U36+P04350+Q3ZCM7+P07437+P68363+Q9BQE3+Q6PEY2+Q13885+Q9BVA1+Q9BUF5); assay: Binding affinity to tubulin (unknown origin) by fluorescence polarization displacement assay; type: protein-complex assay
Measured relative binding affinity (RBA) accompanies every entry in the list below.

Solved entries:
- CCO[C@H](C[C@H](C(C)C)N(C)C(=O)[C@@H](NC(=O)[C@H]1CCCCN1C)C1CCC1)c1nc(C(=O)N[C@@H](Cc2ccccc2)C[C@H](C)C(=O)O)cs1: 0.03
- CC[C@H](C)[C@H](NC(=O)[C@H]1CCCCN1C)C(=O)N(C)[C@H](C[C@@H](OCc1ccccc1)c1nc(C(=O)N[C@@H](Cc2ccccc2)C[C@H](C)C(=O)O)cs1)C(C)C: 0.07
- CCO[C@H](C[C@H](C(C)C)N(C)C(=O)[C@@H](NC(=O)[C@H]1CCCCN1C)C1CCCCC1)c1nc(C(=O)N[C@@H](Cc2ccccc2)C[C@H](C)C(=O)O)cs1: 0.4
- CCCC(=O)O[C@H](C[C@H](C(C)C)N(C)C(=O)[C@@H](NC(=O)[C@H]1CCCCN1C)[C@@H](C)CC)c1nc(C(=O)N[C@@H](Cc2ccccc2)C[C@H](C)C(=O)O)cs1: 0.52

What does the data say about its relative binding affinity (RBA)? Entry: `CCO[C@H](C[C@H](C(C)C)N(C)C(=O)[C@@H](NC(=O)[C@H]1CCCCN1C)C1CCCC1)c1nc(C(=O)N[C@@H](Cc2ccccc2)C[C@H](C)C(=O)O)cs1`
0.45

Origin of values: ChEMBL document CHEMBL4725251
